These entries and their values trace back to patent US20260285903A1.

test: Thermodynamic (equilibrium) solubility; format: physicochemical; details: as printed in Example 6; read-out: thermodynamic (or equilibrium) solubility
quantity.kind: solubility thermodynamic
Answer shape: numeric part, then the unit.

The compound identified as CCCCCC(CC(=O)CCc1ccc(O)c(OC)c1)SCC(NC(=O)CCC(N)C(=O)O)C(=O)NCC(=O)O (stereo not shown) registered its solubility thermodynamic at 1390 µM

* * *

test system: Caco-2/BBe cells; test: MTT viability assay, 2D culture; type: cell-based, human; conditions: Homo sapiens, Caco-2, 24 h
quantity.kind: pIC50
Just the number, please; pIC50 means minus log10 of the concentration in mol/L.

The molecule identified as CCCCCC(CC(=O)CCc1ccc(O)c(OC)c1)SCC(NC(=O)CCC(N)C(=O)O)C(=O)NCC(=O)O (stereo not shown) [M13, 5-glutathione-6-shogaol] registered its pIC50 at 4.78

* * *

assay: pKa by UV metric at pH 2 to pH 12; type: physicochemical; settings: read-out: pKa2
quantity.kind: pKa
Form: value (number only, do not type unit).

The compound identified as CCCCCC(CC(=O)CCc1ccc(O)c(OC)c1)SCC(NC(=O)CCC(N)C(=O)O)C(=O)NCC(=O)O (stereo not shown) [M13, 5-glutathione-6-shogaol] registered its pKa at 9.12

* * *

system: HCT-116; experiment: MTT viability assay, 2D culture; assay type: cell-based, human; conditions: Homo sapiens, HCT-116; 24 h incubation
quantity.kind: IC50 (µM)
API: value field is a number in µM; no unit string.

The molecule identified as CCCCCC(CC(=O)CCc1ccc(O)c(OC)c1)SCC(NC(=O)CCC(N)C(=O)O)C(=O)NCC(=O)O (stereo not shown) registered its IC50 at 40.1

* * *

test system: NF-κB signaling pathway; assay: NF-κB-dependent luciferase activity in NF-κB/293/GFP-Luc cells treated with TNF-α; format: cell-based; settings: MLY compounds; TNF-α 10 ng/ml, 18 hours
Give T when the value for RLU (% with TNFα) is at least 70%. Give F when it is less.

Sample answers from the record:
*Q* Form field: RLU (% with TNFα) at least 70%? Entry: CCCCCC(CC(=O)CCc1ccc(O)c(OC)c1)SC[C@H](NC(=O)[C@@H](N)CCC(=O)O)C(=O)N[C@@H](CC(C)C)C(=O)O (stereo partly shown)
*A* F

*Q* Form field: RLU (% with TNFα) at least 70%? Entry: CCCCCC(CC(=O)CCc1ccc(O)c(OC)c1)SC[C@H](NC(=O)[C@@H](N)CC(=O)O)C(=O)N[C@H](C(=O)O)C(C)C (stereo partly shown)
*A* F

*Q* Form field: RLU (% with TNFα) at least 70%? Entry: CCCCCC(CC(=O)CCc1ccc(O)c(OC)c1)SC[C@H](NC(=O)[C@@H](N)CCC(=O)O)C(=O)N[C@@H](Cc1c[nH]c2ccccc12)C(=O)O (stereo partly shown)
*A* T

*Q* Form field: RLU (% with TNFα) at least 70%? Entry: CCCCCC(CC(=O)CCc1ccc(O)c(OC)c1)SC[C@H](NC(=O)[C@@H](N)CCC(=O)O)C(=O)N[C@@H](CCSC)C(=O)O (stereo partly shown)
*A* F

*Q* Form field: RLU (% with TNFα) at least 70%? Entry: CCCCCC(CC(=O)CCc1ccc(O)c(OC)c1)SC[C@H](NC(=O)[C@@H](N)CCC(=O)O)C(=O)N[C@@H](Cc1ccc(O)cc1)C(=O)O (stereo partly shown)
*A* F

Consider the additional compound presented here.
*Q* Form field: RLU (% with TNFα) at least 70%? Entry: CCCCCC(CC(=O)CCc1ccc(O)c(OC)c1)SC[C@H](NC(=O)[C@@H](N)CC(=O)O)C(=O)N[C@H](C(=O)O)[C@@H](C)CC (stereo partly shown)
*A* T
